Exercise: state measured IC50 for each of the sequences provided.
- Assay target: A*0203 (Homo sapiens, UniProt P04439, A173T/D140Y/D185E/D98H/E277Q/G131W/G231S/I119V/I121R/I166T/I218V/L180W/L300P/L318F/N151K/N90K/P208A/P217A/Q86G/Q94H/R138H/R169H/T345S)
- Assay summary: biochemical
- Assay type: binding
No end group written: not given here.
One number for each entry, in nM.

Answer for every listed entry: what is its IC50? The entries follow.
1. YTLHVIKSDV [Peptide 9013.0151]
2. ILAEAMSKA [Peptide 1516.09]
3. ILNTTYLWWV [Peptide 9013.0195]
4. QITPLCVTL [Peptide 1516.13]
5. RILQHLLFA [Peptide 1525.24]

[reply]
1: 972; 2: 2.8; 3: 22; 4: 4390; 5: 51

Answer for every listed entry: what is its IC50? The entries follow.
1. VLFTCEPET [Peptide 9013.0045]
2. FLSALKLFL [Peptide 1578.17]
3. GVLVGVALV [Peptide 9013.0110]
4. RLTVKTITVSA [Peptide 9013.0319]
5. FLKGCIISYV [Peptide 1578.43]
6. GLFQQSTQEL [Peptide 9013.0176]

[reply]
1. 502
2. 11
3. 472
4. 91
5. 2
6. 48
